Reference for the values: ChEMBL document CHEMBL4406921

- assayRemarks: Protein binding in human plasma
- Type: ADME, cell-free
- runConditions: read-out: PPB
measurementLabel: fraction unbound

>>> valuereported("NC(=O)c1cccc([C@H]2C[C@H]3CC[C@@H](C2)N3CCN(CC2CCCCC2)C(=O)[C@@H](O)CO)c1.O=S(=O)(O)O [AXELOPRAN SULFATE]")
"0.7 to 0.77"

###

- subjectOfTest: Kappa-type opioid receptor (Cavia porcellus)
- Sequence (P41144 whole entry): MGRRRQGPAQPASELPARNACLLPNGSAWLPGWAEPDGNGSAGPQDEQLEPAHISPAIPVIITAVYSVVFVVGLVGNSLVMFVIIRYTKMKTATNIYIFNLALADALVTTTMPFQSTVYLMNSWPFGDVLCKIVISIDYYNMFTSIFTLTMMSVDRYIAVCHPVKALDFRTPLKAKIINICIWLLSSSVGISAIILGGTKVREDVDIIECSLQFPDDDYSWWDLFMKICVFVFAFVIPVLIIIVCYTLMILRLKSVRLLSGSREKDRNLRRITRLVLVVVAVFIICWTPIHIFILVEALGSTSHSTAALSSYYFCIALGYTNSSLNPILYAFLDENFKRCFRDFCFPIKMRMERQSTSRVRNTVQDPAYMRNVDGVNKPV
- assayRemarks: Displacement of [3H]-DPN from guinea pig kappa opioid receptor expressed in CHO-K1 cell membranes by radioligand binding assay
pKi: −log10 of the molar value.
measurementLabel: pKi

>>> valuereported("NC(=O)c1cccc([C@H]2C[C@H]3CC[C@@H](C2)N3CCN(CC2CCCCC2)C(=O)CO)c1")
9.90
>>> valuereported("CC(C)(C)C(=O)N(CCN1[C@@H]2CC[C@H]1C[C@@H](c1cccc(C(N)=O)c1)C2)CC1CCCCC1")
9.80
>>> valuereported("CCC(CC)CN(CCN1[C@@H]2CC[C@H]1C[C@@H](c1cccc(C(N)=O)c1)C2)C(=O)CO")
9.90
>>> valuereported("NC(=O)c1cccc([C@H]2C[C@H]3CC[C@@H](C2)N3CCN(CC2CCCCC2)C(=O)C(F)(F)F)c1")
9.00
>>> valuereported("NC(=O)c1cccc([C@H]2C[C@H]3CC[C@@H](C2)N3CCN(CC2CCCCC2)C(=O)Cc2nnn[nH]2)c1")
8.80
>>> valuereported("NC(=O)c1cccc([C@H]2C[C@H]3CC[C@@H](C2)N3CCN(CC2CCOCC2)C(=O)CO)c1")
8.20
>>> valuereported("CN(C)S(=O)(=O)N(CCN1[C@@H]2CC[C@H]1C[C@@H](c1cccc(C(N)=O)c1)C2)CC1CCCCC1")
9.70
>>> valuereported("NC(=O)c1cccc([C@H]2C[C@H]3CC[C@@H](C2)N3CCN(CCCc2ccccc2)C(=O)CO)c1")
9.30

###

- subjectOfTest: Mu-type opioid receptor (Homo sapiens, UniProt P35372)
- Sequence (P35372 whole entry): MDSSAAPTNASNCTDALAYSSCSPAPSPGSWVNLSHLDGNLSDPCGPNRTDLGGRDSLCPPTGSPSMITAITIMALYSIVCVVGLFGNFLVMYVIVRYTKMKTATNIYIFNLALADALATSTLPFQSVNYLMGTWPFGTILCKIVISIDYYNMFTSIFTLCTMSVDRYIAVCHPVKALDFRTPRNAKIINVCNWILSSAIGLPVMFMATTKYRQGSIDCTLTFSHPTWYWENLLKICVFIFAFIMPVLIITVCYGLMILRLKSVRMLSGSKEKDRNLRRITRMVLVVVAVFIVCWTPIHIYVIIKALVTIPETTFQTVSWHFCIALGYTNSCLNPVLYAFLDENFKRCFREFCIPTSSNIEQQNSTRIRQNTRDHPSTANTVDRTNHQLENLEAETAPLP
- assayRemarks: Displacement of [3H]-DPN from recombinant human mu opioid receptor expressed in CHO-K1 cell membranes by radioligand binding assay
Documented Ki across a set of compounds
measurementLabel: Ki (nM)

>>> valuereported("CCC(CC)CN(CCCCCN1[C@@H]2CC[C@H]1C[C@@H](c1cccc(C(N)=O)c1)C2)C(=O)CO")
0.631
>>> valuereported("CCC(CC)CN(CCN1[C@@H]2CC[C@H]1C[C@@H](c1cccc(C(N)=O)c1)C2)C(=O)CO")
0.158
>>> valuereported("C[C@H]1CN(CCC(=O)O)CC[C@@]1(C)c1cccc(O)c1")
631
>>> valuereported("NC(=O)c1cccc([C@H]2C[C@H]3CC[C@@H](C2)N3CCNCC2CCCCC2)c1")
0.251
>>> valuereported("NC(=O)c1cccc([C@H]2C[C@H]3CC[C@@H](C2)N3CCN(CC2CCCCC2)C(=O)CO)c1")
0.1
>>> valuereported("NC(=O)c1cccc([C@H]2C[C@H]3CC[C@@H](C2)N3CCN(CC2CCCCC2)C(=O)[C@@H](O)CO)c1.O=S(=O)(O)O [AXELOPRAN SULFATE]")
0.158
>>> valuereported("NC(=O)c1cccc([C@H]2C[C@H]3CC[C@@H](C2)N3CCN(CCCc2ccccc2)C(=O)CO)c1")
0.794
>>> valuereported("NC(=O)c1cccc([C@H]2C[C@H]3CC[C@@H](C2)N3CCN(CC2CCOCC2)C(=O)CO)c1")
12.6
>>> valuereported("C[C@H]1CN(CCCc2ccccc2)CC[C@@]1(C)c1cccc(O)c1")
0.1
>>> valuereported("COC(=O)N(CCN1[C@@H]2CC[C@H]1C[C@@H](c1cccc(C(N)=O)c1)C2)CC1CCCCC1")
0.126
>>> valuereported("CN(C)S(=O)(=O)N(CCN1[C@@H]2CC[C@H]1C[C@@H](c1cccc(C(N)=O)c1)C2)CC1CCCCC1")
0.2

###

Recorded measurements of Ki, one per entry
- subjectOfTest: Delta-type opioid receptor (Homo sapiens)
- Sequence (P41143 whole entry): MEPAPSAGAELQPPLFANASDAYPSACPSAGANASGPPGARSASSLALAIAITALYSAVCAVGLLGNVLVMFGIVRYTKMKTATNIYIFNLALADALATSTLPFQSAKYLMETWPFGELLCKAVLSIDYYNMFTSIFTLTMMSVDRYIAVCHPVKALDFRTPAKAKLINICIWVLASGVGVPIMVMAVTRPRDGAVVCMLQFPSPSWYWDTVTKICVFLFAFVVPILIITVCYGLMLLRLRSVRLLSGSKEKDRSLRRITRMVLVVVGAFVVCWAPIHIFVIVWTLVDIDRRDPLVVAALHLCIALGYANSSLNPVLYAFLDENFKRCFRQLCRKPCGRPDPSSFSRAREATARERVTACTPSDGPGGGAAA
- assayRemarks: Displacement of [3H]-DPN from recombinant human delta opioid receptor expressed in CHO-K1 cell membranes by radioligand binding assay
measurementLabel: Ki (nM)

>>> valuereported("C[C@H]1CN(CCCc2ccccc2)CC[C@@]1(C)c1cccc(O)c1")
1.26
>>> valuereported("NC(=O)c1cccc([C@H]2C[C@H]3CC[C@@H](C2)N3CCN(CC2CCC(F)(F)CC2)C(=O)CO)c1")
12.6
>>> valuereported("C[C@H]1CN(C[C@H](Cc2ccccc2)C(=O)NCC(=O)O)CC[C@H]1c1cccc(O)c1")
5.01
>>> valuereported("NC(=O)c1cccc([C@H]2C[C@H]3CC[C@@H](C2)N3CCN(CC2CCCCC2)C(=O)Cc2nnn[nH]2)c1")
3.16
>>> valuereported("NC(=O)c1cccc([C@H]2C[C@H]3CC[C@@H](C2)N3CCN(CC2CCCC2)C(=O)CO)c1")
15.8
>>> valuereported("CCC(CC)CN(CCCCCN1[C@@H]2CC[C@H]1C[C@@H](c1cccc(C(N)=O)c1)C2)C(=O)CO")
20
>>> valuereported("C[C@H]1CN(C[C@H](Cc2ccccc2)C(=O)O)CC[C@@]1(C)c1cccc(O)c1")
15.8
>>> valuereported("C[C@H]1CN(CCC(=O)O)CC[C@@]1(C)c1cccc(O)c1")
3160
>>> valuereported("NC(=O)c1cccc([C@H]2C[C@H]3CC[C@@H](C2)N3CCN(CC2CCCCC2)C(=O)C(F)(F)F)c1")
10

###

- assayRemarks: Permeability coefficient, Kp in human Caco2 cells
- Type: ADME, cell-based
- runConditions: Caco-2, read-out: Kp
Item-by-item account of Papp
measurementLabel: Papp

>>> valuereported("O=C1CC[C@@]2(O)[C@H]3Cc4ccc(O)c5c4[C@@]2(CCN3CC2CC2)[C@H]1O5 [NALTREXONE]")
"84 ×10⁻⁶ cm/s"
>>> valuereported("NC(=O)c1cccc([C@H]2C[C@H]3CC[C@@H](C2)N3CCN(CC2CCCCC2)C(=O)CO)c1")
"40 ×10⁻⁶ cm/s"
>>> valuereported("NC(=O)c1cccc([C@H]2C[C@H]3CC[C@@H](C2)N3CCN(Cc2ccccc2)C(=O)CO)c1")
"21 ×10⁻⁶ cm/s"
>>> valuereported("CCC(CC)CN(CCCN1[C@@H]2CC[C@H]1C[C@@H](c1cccc(C(N)=O)c1)C2)C(=O)CO")
"20 ×10⁻⁶ cm/s"
>>> valuereported("C[C@H]1CN(C[C@H](Cc2ccccc2)C(=O)NCC(=O)O)CC[C@H]1c1cccc(O)c1")
"3 ×10⁻⁶ cm/s"
>>> valuereported("C[N+]1(CC2CC2)CC[C@]23c4c5ccc(O)c4O[C@H]2C(=O)CC[C@@]3(O)[C@H]1C5.[Br-] (stereo partly drawn) [METHYLNALTREXONE BROMIDE]")
"2 ×10⁻⁶ cm/s"
>>> valuereported("NC(=O)c1cccc([C@H]2C[C@H]3CC[C@@H](C2)N3CCN(CC2CCC(F)(F)CC2)C(=O)CO)c1")
"14 ×10⁻⁶ cm/s"
>>> valuereported("CCC(CC)CN(CCN1[C@@H]2CC[C@H]1C[C@@H](c1cccc(C(N)=O)c1)C2)C(=O)CO")
"32 ×10⁻⁶ cm/s"

###

- assayRemarks: Oral bioavailability in fasted male Beagle dog
- Format: ADME, organism-based, Canis lupus familiaris
- runConditions: in vivo
measurementLabel: bioavailability

>>> valuereported("NC(=O)c1cccc([C@H]2C[C@H]3CC[C@@H](C2)N3CCN(CC2CCCCC2)C(=O)[C@@H](O)CO)c1.O=S(=O)(O)O [AXELOPRAN SULFATE]")
"45%"

###

Recorded below: Ki, system Kappa-type opioid receptor (Cavia porcellus, UniProt P41144).
measurementLabel: Ki (nM)

>>> valuereported("CS(=O)(=O)CC(=O)N(CCN1[C@@H]2CC[C@H]1C[C@@H](c1cccc(C(N)=O)c1)C2)CC1CCCCC1")
0.1
>>> valuereported("CCCCCCN(CCN1[C@@H]2CC[C@H]1C[C@@H](c1cccc(C(N)=O)c1)C2)C(=O)CO")
3.16
>>> valuereported("NC(=O)c1cccc([C@H]2C[C@H]3CC[C@@H](C2)N3CCN(CC2CCC(F)(F)CC2)C(=O)CO)c1")
0.251
>>> valuereported("NC(=O)c1cccc([C@H]2C[C@H]3CC[C@@H](C2)N3CCN(CC2CCCCC2)C(=O)[C@@H](O)CO)c1.O=S(=O)(O)O [AXELOPRAN SULFATE]")
0.126
>>> valuereported("CCC(CC)CN(CCCN1[C@@H]2CC[C@H]1C[C@@H](c1cccc(C(N)=O)c1)C2)C(=O)CO")
0.2
>>> valuereported("NC(=O)c1cccc([C@H]2C[C@H]3CC[C@@H](C2)N3CCN(CC2CCCC2)C(=O)CO)c1")
0.316
>>> valuereported("NC(=O)c1cccc([C@H]2C[C@H]3CC[C@@H](C2)N3CCNCC2CCCCC2)c1")
0.158
>>> valuereported("NC(=O)c1cccc([C@H]2C[C@H]3CC[C@@H](C2)N3CCN(CC2CCC2)C(=O)CO)c1")
0.631
>>> valuereported("C[C@H]1CN(CCCc2ccccc2)CC[C@@]1(C)c1cccc(O)c1")
0.794
>>> valuereported("NC(=O)c1cccc([C@H]2C[C@H]3CC[C@@H](C2)N3CCN(CC2CCCCC2)C(=O)c2ccco2)c1")
0.1
>>> valuereported("CC(=O)N(CCN1[C@@H]2CC[C@H]1C[C@@H](c1cccc(C(N)=O)c1)C2)CC1CCCCC1")
0.126
>>> valuereported("NC(=O)c1cccc([C@H]2C[C@H]3CC[C@@H](C2)N3CCN(Cc2ccccc2)C(=O)CO)c1")
0.2
>>> valuereported("C[C@H]1CN(C[C@H](Cc2ccccc2)C(=O)O)CC[C@@]1(C)c1cccc(O)c1")
25.1
>>> valuereported("COC(=O)N(CCN1[C@@H]2CC[C@H]1C[C@@H](c1cccc(C(N)=O)c1)C2)CC1CCCCC1")
0.2
>>> valuereported("CS(=O)(=O)N(CCN1[C@@H]2CC[C@H]1C[C@@H](c1cccc(C(N)=O)c1)C2)CC1CCCCC1")
0.794
>>> valuereported("C[C@H]1CN(C[C@H](Cc2ccccc2)C(=O)NCC(=O)O)CC[C@H]1c1cccc(O)c1")
5.01
>>> valuereported("CC(C)NC(=O)N(CCN1[C@@H]2CC[C@H]1C[C@@H](c1cccc(C(N)=O)c1)C2)CC1CCCCC1")
0.158
